- SUBJECT_OF_TEST: Recombinant Human Poly(ADP-Ribose) Polymerase (PARP), PARP-1 (Homo sapiens (Human), UniProt P09874)
- Sequence (P09874 whole entry): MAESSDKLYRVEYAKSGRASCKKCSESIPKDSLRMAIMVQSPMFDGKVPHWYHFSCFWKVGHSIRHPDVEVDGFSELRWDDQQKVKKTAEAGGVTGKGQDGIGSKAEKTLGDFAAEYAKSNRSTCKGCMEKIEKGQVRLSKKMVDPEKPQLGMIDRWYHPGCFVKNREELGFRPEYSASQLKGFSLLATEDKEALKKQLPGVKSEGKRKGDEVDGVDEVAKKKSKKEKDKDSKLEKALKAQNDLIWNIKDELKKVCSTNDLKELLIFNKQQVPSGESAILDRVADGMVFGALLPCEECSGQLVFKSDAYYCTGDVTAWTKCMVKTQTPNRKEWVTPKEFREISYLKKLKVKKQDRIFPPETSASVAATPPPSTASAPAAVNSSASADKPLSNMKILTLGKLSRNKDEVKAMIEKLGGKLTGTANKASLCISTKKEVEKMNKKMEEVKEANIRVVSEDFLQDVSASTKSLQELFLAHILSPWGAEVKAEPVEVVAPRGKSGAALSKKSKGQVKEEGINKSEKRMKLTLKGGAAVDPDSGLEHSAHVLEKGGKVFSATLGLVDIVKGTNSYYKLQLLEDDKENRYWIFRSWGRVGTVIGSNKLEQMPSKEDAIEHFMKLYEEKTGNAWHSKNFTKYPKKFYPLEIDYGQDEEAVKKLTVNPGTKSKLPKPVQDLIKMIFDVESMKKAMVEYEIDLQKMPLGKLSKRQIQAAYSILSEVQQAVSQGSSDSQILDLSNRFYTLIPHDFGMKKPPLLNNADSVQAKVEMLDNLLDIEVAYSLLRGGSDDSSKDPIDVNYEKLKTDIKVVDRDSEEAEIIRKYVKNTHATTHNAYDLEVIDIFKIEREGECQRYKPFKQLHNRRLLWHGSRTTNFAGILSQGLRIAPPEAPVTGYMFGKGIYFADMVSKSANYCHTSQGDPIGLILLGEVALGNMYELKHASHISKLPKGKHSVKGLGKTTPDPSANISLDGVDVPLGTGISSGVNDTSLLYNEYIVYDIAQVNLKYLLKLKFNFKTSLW
- CONDITION: read-out: PARP-1 (Ki); Table 1; text calls the values EC50s
pKi: −log10 of the molar value.
TEST_READOUT: pKi

Solved entries:
                                   molecule  assay_value
0  O=C(c1cccnc1)N1CCN(C(=O)c2cc(Cc3n[nH]c(=O)c4c3CCCC4)ccc2F)CC1 [Example 722]         8.92
1  O=C(CCCC(=O)Nc1cc(Cc2n[nH]c(=O)c3c2CCCC3)ccc1F)Nc1ccccc1 [Example 457]         9.15
2  O=C(OCc1ccccc1)N1CCCN(C(=O)c2cc(Cc3n[nH]c(=O)c4c3CCCC4)ccc2F)CC1 [Example 544]         8.40
3  O=C(c1cc(Cc2n[nH]c(=O)c3c2NCCC3)ccc1F)N1CCCN(C(=O)[C@@H]2CSCN2)CC1 [Example 701]         8.64
4  O=C(c1cccc(Cc2n[nH]c(=O)c3c2CCCC3)c1)N1CCC(c2ccccc2)CC1 [Example 61]         8.22

I = NC(=O)C1CCCN(C(=O)c2cc(Cc3n[nH]c(=O)c4c3NCCC4)ccc2F)C1 (centres unmarked) [Example 519]
II = O=C(c1ccco1)N1CCCN(C(=O)c2cc(Cc3n[nH]c(=O)c4c3NCCC4)ccc2F)CC1 [Example 694]
## Task Among I and II , which shows a numerically higher pKi result? // respond with label for picked entry
## Result II
(II: 8.77, I: 8.30)
